Biological target: T1, 4H4001-bN
T1 chain: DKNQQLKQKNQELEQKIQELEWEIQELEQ
Assay: two-hybrid library CCNG1;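 also: natural log of median RNA to DNA barcode read ratio; higher means stronger binding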
Lab note - cut at 0.09 for interaction score: YES if strictly below, NO if not.

| binder | discrete_label |
| --- | --- |
| DKNQQLKQEIQELEQENQELEWKIQELKQ [4H3606-bN] | YES |
| DKIQQLKQEIQELEQKNQELEWEIQELKQ [4H2610-bN] | YES |
| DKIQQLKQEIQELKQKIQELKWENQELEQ [4H2667-bN] | NO |
| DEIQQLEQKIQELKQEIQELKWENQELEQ [4H331-bN] | NO |
| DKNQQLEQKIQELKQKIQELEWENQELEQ [4H3427-bN] | YES |
| DKNQQLKQKIQELEQEIQELEWENQELEQ [4H3843-bN] | YES |
| DENQQLEQENQELKQKIQELKWEIQELEQ [4H1257-bN] | YES |
| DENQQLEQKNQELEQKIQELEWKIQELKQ [4H1446-bN] | NO |

Task: interaction score under 0.09? Item: DEIQQLEQKIQELKQENQELEWKIQELKQ [4H342-bN]
Result: YES

Task: Next up: DKIQQLKQEIQELEQKNQELKWEIQELKQ [4H2618-bN]
Result: YES

Task: Next up: DENQQLEQKIQELEQKIQELKWKNQELKQ [4H1328-bN]
Result: NO

Task: Next up: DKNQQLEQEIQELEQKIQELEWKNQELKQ [4H3112-bN]
Result: YES

Task: Next up: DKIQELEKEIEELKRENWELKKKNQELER [4H2143-bH]
Result: YES
